Attribute: diameter of the inhibition zone (DIZ)
- Tested on: Escherichia coli
- EXPERIMENT_SUMMARY: Antibacterial activity against Escherichia coli DC2 after 21 hrs by Kirby-Bauer agar diffusion assay
- Format: functional
Include the unit right after the number.

Consider the following illustrative entries.
* O=C(NO)c1ccc([N+](=O)[O-])cc1 | 0 mm
* O=C(NOCc1ccccc1)c1cc([N+](=O)[O-])cc(C(F)(F)F)c1 | 0 mm
* O=C(NO)c1ccc(Cl)cc1 | 16 mm
* O=C(NOCc1ccccc1)c1cc(Br)cc(C(F)(F)F)c1 | 10 mm

diameter of the inhibition zone (DIZ) reading for CC(C)(C)[Si](C)(C)ONC(=O)c1ccccc1 : 0 mm

Per the records, this molecule ( O=C(NOCc1ccccc1)c1ccc(Cl)cc1 ) has diameter of the inhibition zone (DIZ) equal to 0 mm

Per the record, CCOc1ccc(C(=O)NO)cc1 has diameter of the inhibition zone (DIZ) of 0 mm
